# Read-out: Interleukin-1 alpha (IL1a), IL1A (gene 3552)
# ASSAY_PROTOCOL: BSK_LPS_IL1a: BioMAP Diversity Plus: LPS Assay for Interleukin-1 alpha (IL1a) Biomarker Activity (AID 2283080)
# PROTOCOL_CONDITIONS: primary human HUVEC with PBMC; actives raise or lower the signal
Calls of active or inactive are those of the source. The calls were made as follows: active = hit-call score of the fitted dose curve at least 0.9, where 1 is the maximum; inactive = score below 0.9.
ENDPOINT: AC50

// known answers, use as guide
[Q] Look up and state reported AC50 for CC(C)(C)OOC(=O)c1ccccc1
[A] inactive

[Q] Look up and state reported AC50 for Clc1ccc(C(c2ccc(Cl)cc2)C(Cl)Cl)cc1
[A] 28.6 µM (active)

[Q] Look up and state reported AC50 for CCCCOC(=O)c1ccccc1C(=O)OCc1ccccc1
[A] inactive

[Q] Look up and state reported AC50 for OCCCBr
[A] inactive

[Q] Look up and state reported AC50 for Oc1ccc2ccc3cccc4ccc1c2c34
[A] 29.2 µM (active)

[Q] Look up and state reported AC50 for CN(C)C(=O)Nc1ccc(Cl)cc1
[A] inactive

[Q] Look up and state reported AC50 for CCC12COCN1COC2
[A] inactive

[Q] Look up and state reported AC50 for O=[N+]([O-])C(Br)(CO)CO
[A] 34 µM (active)

More entries:
[Q] Look up and state reported AC50 for Cc1ccc([N+](=O)[O-])cc1
[A] inactive

[Q] Look up and state reported AC50 for CCCSC(=O)N(CCC)CCC
[A] inactive

[Q] Look up and state reported AC50 for O=C(N[C@H](c1ccccc1)[C@@H]1CN2CCC1CC2)c1c(Cl)ccc(C(F)(F)F)c1Cl
[A] inactive

[Q] Look up and state reported AC50 for Brc1ccc(Oc2ccccc2)cc1
[A] inactive

[Q] Look up and state reported AC50 for c1ccc2c(c1)oc1ccccc12
[A] inactive

[Q] Look up and state reported AC50 for C1=Cc2cccc3cccc1c23
[A] inactive

[Q] Look up and state reported AC50 for CCOc1cccc(C2(N3CCN(c4ccccc4)CC3)CCC(C)CC2)c1 (stereo not given)
[A] inactive
